Listing: pIC50 of selected compounds
molecular target: Human recombinant MetAP2 (Homo sapiens); assay: recombinant human MetAP2 inhibition assay (MAS substrate, amino acid oxidase/Amplex red fluorescence); details: manganese enzyme, 30 minutes at 25° C., pH 7.5, 0.75 mM MAS substrate, 1% DMSO
Sequence (P50579 whole entry): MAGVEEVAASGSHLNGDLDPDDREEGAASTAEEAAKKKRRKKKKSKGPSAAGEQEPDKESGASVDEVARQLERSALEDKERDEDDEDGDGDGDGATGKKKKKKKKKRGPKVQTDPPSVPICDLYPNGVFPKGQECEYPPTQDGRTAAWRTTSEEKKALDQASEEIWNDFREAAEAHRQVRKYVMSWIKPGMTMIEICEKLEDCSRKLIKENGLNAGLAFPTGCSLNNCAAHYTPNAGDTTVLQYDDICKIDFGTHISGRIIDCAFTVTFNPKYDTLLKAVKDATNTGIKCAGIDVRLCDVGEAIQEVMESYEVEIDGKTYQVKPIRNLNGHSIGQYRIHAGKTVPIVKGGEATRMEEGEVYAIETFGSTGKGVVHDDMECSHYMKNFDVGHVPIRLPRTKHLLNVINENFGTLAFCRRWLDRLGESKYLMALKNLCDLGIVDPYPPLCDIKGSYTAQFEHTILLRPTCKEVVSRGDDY
pIC50: −log10 of the molar value.
REPORTED METRIC: pIC50

COMPOUND	TARGET OR SYSTEM	REPORTED METRIC	RESULT
CCN(CC)C/C=C\c1cc(F)ccc1S(=O)(=O)Cc1ccc2c(c1C(=O)O)OC[C@H]1C[C@@H]21 (racemic)	Human recombinant MetAP2 (Homo sapiens)	pIC50	< 7.00
CCN(CC)C/C=C\c1cc(F)ccc1S(=O)(=O)Cc1ccc2c(c1C(=O)O)OC[C@@H]1C[C@H]21	Human recombinant MetAP2 (Homo sapiens)	pIC50	< 7.00
